Values compiled from patent US6693108B2.

Target: activated JNK3 (Homo sapiens)
Construct: One such construct encodes amino acid residues Ser40-Glu402 of JNK3α1 and is preceded by Met and Gly residues; Met-Gly (initiation Met plus Gly added to create the NcoI site) (N)
Sequence (P53779 40-402): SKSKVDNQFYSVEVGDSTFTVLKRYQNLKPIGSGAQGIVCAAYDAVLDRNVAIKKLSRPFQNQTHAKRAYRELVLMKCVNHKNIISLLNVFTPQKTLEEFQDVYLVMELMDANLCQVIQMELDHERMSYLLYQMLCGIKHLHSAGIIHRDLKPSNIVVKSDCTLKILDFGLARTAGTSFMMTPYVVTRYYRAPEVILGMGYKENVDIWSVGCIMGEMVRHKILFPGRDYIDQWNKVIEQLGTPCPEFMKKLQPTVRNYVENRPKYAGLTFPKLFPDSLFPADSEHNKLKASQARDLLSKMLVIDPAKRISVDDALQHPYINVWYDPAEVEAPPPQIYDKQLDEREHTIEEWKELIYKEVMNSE
Assay: JNK3 inhibition, spectrophotometric coupled-enzyme assay
Conditions: read-out: Activity in the JNK3 Inhibition Assay (Ki rating)
pKi: −log10 of the molar value.
QUANTITY: pKi

Example results:
Cc1ccc(Nc2nccc(-c3c(-c4ccccc4)noc3C)n2)cc1: > 7.00
COc1cc(C(=O)Nc2nccc(-c3c(-c4c(F)cccc4F)noc3C)n2)cc(OC)c1OC: 6.00 to 7.00
Cc1cccc(C(=O)Nc2nccc(-c3c(-c4cccc(F)c4)noc3C)n2)c1: 6.00 to 7.00
COc1cc(OC)cc(C(=O)Nc2nccc(-c3c(-c4ccccc4)noc3C)n2)c1: 6.00 to 7.00

Now turn to the next compound.
Problem: Returns the measured pKi for the input compound. Input: COc1ccc(C(=O)Nc2nccc(-c3c(-c4cccc([N+](=O)[O-])c4)noc3C)n2)cc1
Solution: < 6.00
